Exercise: for every item that follows, state its recorded Number of survivors at day 8.
Tested on: Klebsiella pneumoniae
Assay: Anti-infectious activity with respect to Klebsiella
Type: in vivo
Conditions: mice, i.v. treatment 24h before 2 × 10^4 bacteria i.m., dose per mouse 100
One number for each entry.

CCCCCCCCCCOC(=O)[C@H](CCCCN)NC(=O)CC[C@@H](NC(=O)[C@H](C)NC(=O)[C@@H](C)O[C@H]1[C@H](O)[C@@H](CO)OC(O)[C@@H]1NC(C)=O)C(N)=O (stereo partly drawn) [MDP--L--Lys--decyl--ester] | 20
CCCCCCCCCCOC(=O)CC[C@@H](NC(=O)[C@H](C)NC(=O)[C@@H](C)O[C@H]1[C@H](O)[C@@H](CO)OC(O)[C@@H]1NC(C)=O)C(=O)OC (some centres unmarked) [MDPA(decyl--ester)OCH3] | 10

List Number of survivors at day 8 for every entry below, keeping the order given.
1. CCCCCCCCCCOC(=O)[C@H](C)NC(=O)CC[C@@H](NC(=O)[C@H](C)NC(=O)[C@@H](C)O[C@H]1[C@H](O)[C@@H](CO)OC(O)[C@@H]1NC(C)=O)C(N)=O (stereo partly drawn) [MDP--L--Ala--decyl--ester]
2. CC(=O)N[C@H]1C(O)O[C@H](CO)[C@@H](O)[C@@H]1O[C@H](C)C(=O)N[C@@H](C)C(=O)N[C@H](CCC(=O)N[C@@H](C)C(=O)OCc1ccccc1)C(N)=O (stereo partly drawn) [MDP--L--Ala--benzyl--ester]
3. CCCCCCCCCCCCCCCCCCCCOC(=O)[C@H](C)NC(=O)CC[C@@H](NC(=O)[C@H](C)NC(=O)[C@@H](C)O[C@H]1[C@H](O)[C@@H](CO)OC(O)[C@@H]1NC(C)=O)C(N)=O (stereo partly drawn) [MDP--L--Ala--eicosyl--ester]

-- reply
1: 22; 2: 14; 3: 20

###

Exercise: for every item that follows, state its recorded Number of survivors at day 8.
Test system: Klebsiella pneumoniae
Assay: Anti-infectious activity with respect to Klebsiella
Assay type: in vivo
Conditions: mice, i.v. treatment 24h before 2 × 10^4 bacteria i.m., dose per mouse 100
Answers are plain numbers.

CCCCOC(=O)[C@H](C)NC(=O)CC[C@@H](NC(=O)[C@H](C)NC(=O)[C@@H](C)O[C@H]1[C@H](O)[C@@H](CO)OC(O)[C@@H]1NC(C)=O)C(N)=O (stereo partly drawn) [MDP--L--Ala--butyl--ester] | 17
CCCCCCCCCCOC(=O)CC[C@@H](NC(=O)[C@H](C)NC(=O)[C@@H](C)O[C@H]1[C@H](O)[C@@H](CO)OC(O)[C@@H]1NC(C)=O)C(N)=O (some centres unmarked) [MDP--decyl--ester] | 21
CCCCOC(=O)CC[C@@H](NC(=O)[C@H](C)NC(=O)[C@@H](C)O[C@H]1[C@H](O)[C@@H](CO)OC(O)[C@@H]1NC(C)=O)C(=O)OC (some centres unmarked) [MDPA(butyl--ester)OCH3] | 9
CCCCCCCCCCNC(=O)[C@H](C)NC(=O)CC[C@@H](NC(=O)[C@H](C)NC(=O)[C@@H](C)O[C@H]1[C@H](O)[C@@H](CO)OC(O)[C@@H]1NC(C)=O)C(N)=O (stereo partly drawn) [MDP--L--Ala--decyl--amide] | 16

# evaluate next
-- ask # query: Number of survivors at day 8 of entry CCCCCCCCCCCCCCCOC(=O)[C@H](C)NC(=O)CC[C@@H](NC(=O)[C@H](C)NC(=O)[C@@H](C)O[C@H]1[C@H](O)[C@@H](CO)OC(O)[C@@H]1NC(C)=O)C(N)=O (stereo partly drawn) [MDP--L--Ala--penta--decyl--ester]
-- reply 15
